# Measurement protocol: In-vivo pharmacokinetic analysis (beagle), single oral administration
# Condition notes: dog, plasma, beagles, Docetaxel PO 50 mg/kg, 1 h, mean n = 2
Observable: concentration at 1 h
Don't forget the unit after the value.

input: State the recorded concentration at 1 h for this entry: CC(=O)O[C@@]12CO[C@@H]1C[C@H](O)[C@@]1(C)C(=O)[C@H](O)C3=C(C)[C@@H](OC(=O)[C@H](O)[C@@H](NC(=O)OC(C)(C)C)c4ccccc4)C[C@@](O)([C@@H](OC(=O)c4ccccc4)[C@H]21)C3(C)C [Comparative Example 1, Docetaxel]
output: 0.243 ng/mL

----------
# Measurement protocol: In-vivo pharmacokinetic analysis (beagle), single oral administration
# Condition notes: dog, plasma, beagles, Docetaxel PO 50 mg/kg, 0.5 h, mean n = 2
Observable: concentration at 0.5 h (ng/mL)
Please give a number only; it is taken to be in ng/mL.

input: State the recorded concentration at 0.5 h for this entry: CC(=O)O[C@@]12CO[C@@H]1C[C@H](O)[C@@]1(C)C(=O)[C@H](O)C3=C(C)[C@@H](OC(=O)[C@H](O)[C@@H](NC(=O)OC(C)(C)C)c4ccccc4)C[C@@](O)([C@@H](OC(=O)c4ccccc4)[C@H]21)C3(C)C
output: 0.219

----------
# Measurement protocol: in vivo
# Condition notes: rat, po, 50 mg/kg
Observable: Tmax (h)
Please give a number only; it is taken to be in h.

input: State the recorded Tmax for this entry: CC(=O)O[C@@]12CO[C@@H]1C[C@H](O)[C@@]1(C)C(=O)[C@H](O)C3=C(C)[C@@H](OC(=O)[C@H](O)[C@@H](NC(=O)OC(C)(C)C)c4ccccc4)C[C@@](O)([C@@H](OC(=O)c4ccccc4)[C@H]21)C3(C)C
output: 12

----------
# Measurement protocol: In-vivo pharmacokinetic analysis (beagle), single oral administration
# Condition notes: dog, plasma, beagles, Docetaxel PO 50 mg/kg, 8 h, mean n = 2
Observable: concentration at 8 h
Don't forget the unit after the value.

input: State the recorded concentration at 8 h for this entry: CC(=O)O[C@@]12CO[C@@H]1C[C@H](O)[C@@]1(C)C(=O)[C@H](O)C3=C(C)[C@@H](OC(=O)[C@H](O)[C@@H](NC(=O)OC(C)(C)C)c4ccccc4)C[C@@](O)([C@@H](OC(=O)c4ccccc4)[C@H]21)C3(C)C [Comparative Example 1, Docetaxel]
output: 0.222 ng/mL

----------
# Measurement protocol: In-vivo pharmacokinetic analysis (beagle), single oral administration
# Condition notes: dog, plasma, beagles, Docetaxel PO 50 mg/kg, 0.25 h, mean n = 2
# Excerpt: The compositions of Example 83 and Comparative Example 1 were single orally administered to beagles to obtain plasma drug concentration information. The results are shown in Tables 12 and 13 below and FIGS. 8 and 9.
Observable: concentration at 0.25 h (ng/mL)
Please give a number only; it is taken to be in ng/mL.

input: State the recorded concentration at 0.25 h for this entry: CC(=O)O[C@@]12CO[C@@H]1C[C@H](O)[C@@]1(C)C(=O)[C@H](O)C3=C(C)[C@@H](OC(=O)[C@H](O)[C@@H](NC(=O)OC(C)(C)C)c4ccccc4)C[C@@](O)([C@@H](OC(=O)c4ccccc4)[C@H]21)C3(C)C
output: 0.239

----------
# Measurement protocol: in vivo
# Condition notes: rat, po, 50 mg/kg
Observable: AUC(0-t) (ng·h/mL)
Please give a number only; it is taken to be in ng·h/mL.

input: State the recorded AUC(0-t) for this entry: CC(=O)O[C@@]12CO[C@@H]1C[C@H](O)[C@@]1(C)C(=O)[C@H](O)C3=C(C)[C@@H](OC(=O)[C@H](O)[C@@H](NC(=O)OC(C)(C)C)c4ccccc4)C[C@@](O)([C@@H](OC(=O)c4ccccc4)[C@H]21)C3(C)C
output: 0.85
